System: WA09 hES cells
Assay: Phase 2 targeted biomarker assay, ornithine/cystine ratio, 9-point dose response
Description: Undifferentiated hES Cell Line Maintenance (Phases 1 and 2). […] Phase 2 hES Cell Compound Exposure. […] Cell viability was assessed using the CellTiter-Fluor Cell Viability Assay. A quality control step was included with criteria that the CV of the measured viability RFU of the DMSO control cells could not exceed 10% for a plate to undergo LC-HRMS analysis. […]

Compound | Tgt | O/C Ratio Prediction
CC1(C)S[C@@H]2[C@H](NC(=O)[C@H](N)c3ccc(O)cc3)C(=O)N2[C@H]1C(=O)O | WA09 hES cells | NON
NNC(=O)c1ccncc1 | WA09 hES cells | NON
CO[C@H]1C[C@@H]2CC[C@@H](C)[C@@](O)(O2)C(=O)C(=O)N2CCCC[C@H]2C(=O)O[C@H]([C@H](C)C[C@@H]2CC[C@@H](OCCO)[C@H](OC)C2)CC(=O)[C@H](C)/C=C(\C)[C@@H](O)[C@@H](OC)C(=O)[C@H](C)C[C@H](C)/C=C/C=C/C=C/1C | WA09 hES cells | TER
CS(=O)(=O)OCCCCOS(C)(=O)=O | WA09 hES cells | TER
CCCC(CCC)C(=O)O | WA09 hES cells | TER
CC1=C(/C=C/C(C)=C/C=C/C(C)=C/CO)C(C)(C)CCC1 | WA09 hES cells | NON
COc1ccccc1Oc1c(NS(=O)(=O)c2ccc(C(C)(C)C)cc2)nc(-c2ncccn2)nc1OCCO | WA09 hES cells | NON
O=c1[nH]cc(F)c(=O)[nH]1 | WA09 hES cells | TER
N[C@@H](CC(=O)N1CCn2c(nnc2C(F)(F)F)C1)Cc1cc(F)c(F)cc1F | WA09 hES cells | NON
CN(Cc1cnc2nc(N)nc(N)c2n1)c1ccc(C(=O)N[C@@H](CCC(=O)O)C(=O)O)cc1 [Methotrexate] | WA09 hES cells | TER
CC1=C(/C=C/C(C)=C/C=C/C(C)=C\C(=O)O)C(C)(C)CCC1 [13-cis Retinoic Acid] | WA09 hES cells | TER
N[C@@H](Cc1cc(I)c(Oc2cc(I)c(O)c(I)c2)c(I)c1)C(=O)O | WA09 hES cells | NON
O=C1CCC(N2C(=O)c3ccccc3C2=O)C(=O)N1 (stereo not drawn) [Thalidomide] | WA09 hES cells | TER
S=P(N1CC1)(N1CC1)N1CC1 | WA09 hES cells | TER
O=C1NS(=O)(=O)c2ccccc21 | WA09 hES cells | NON
CS(=O)(=O)CCNCc1ccc(-c2ccc3ncnc(Nc4ccc(OCc5cccc(F)c5)c(Cl)c4)c3c2)o1 | WA09 hES cells | NON
CC(=O)Nc1ccc(O)cc1 | WA09 hES cells | NON
CC[C@H](C)C(=O)O[C@H]1C[C@@H](C)C=C2C=C[C@H](C)[C@H](CC[C@@H]3C[C@@H](O)CC(=O)O3)[C@H]21 | WA09 hES cells | NON
CC(C)(S)[C@@H](N)C(=O)O | WA09 hES cells | TER
O=C1NC(=O)C(c2ccccc2)(c2ccccc2)N1 | WA09 hES cells | NON
NC(=O)N1c2ccccc2C=Cc2ccccc21 [Carbamazepine] | WA09 hES cells | TER
CC1=C(/C=C/C(C)=C/C=C/C(C)=C/C(=O)O)C(C)(C)CCC1 [All-trans Retinoic Acid] | WA09 hES cells | TER
CCN(CC)CCNC(=O)c1cc(Cl)c(N)cc1OC [Metoclopramide] | WA09 hES cells | NON
Cc1ncc(C[n+]2csc(CCO)c2C)c(N)n1 | WA09 hES cells | NON
